system: βTC6 cells; assay: Insulin secretion from βTC6 cells (high range insulin Sandwich ELISA kit); assay type: cell-based; conditions: presence of 2.8 mM glucose, compounds at 10^−12, 10^−9, 10^−6 M
measured parameter: glucose stimulated insulin release

1. O=C(O)CN1C(=O)/C(=C/c2cnc(NCc3ccccc3)nc2)SC1=S [Compound 130g] | significantly increased
2. Cc1cc(O)nc(NC(=O)CN2C(=O)/C(=C\c3ccc(F)cc3)SC2=S)n1 | significant increase
3. C/N=C1/NC(=O)/C(=C\c2ccc(S(=O)(=O)Nc3ccnc(N)n3)cc2)S1 [Compound 105b] | significant increase
4. CN(C)c1ncc(/C=C2\SC(=S)N(CC(=O)O)C2=O)cn1 [Compound 130c] | significantly increased
5. CCCNc1ncc(/C=C2\SC(=S)N(CC(=O)O)C2=O)cn1 [Compound 130f] | significant increases

query: Recorded glucose stimulated insulin release for CN=C1NC(=O)/C(=C\c2ccc(S(=O)(=O)[n+]3ccccc3)cc2)S1 [Compound 105a] , please?
result: significant increase

query: Using the record for CC(C)Nc1ncc(/C=C2\SC(=S)N(CC(=O)O)C2=O)cn1 [Compound 130d] , report its glucose stimulated insulin release.
result: did not show any effect

query: So what's the measured glucose stimulated insulin release for this one? CN(C)c1ncc(/C=C2\SC(=S)NC2=O)cn1 [Compound 130a]
result: did not show any effect

query: Dear colleague, I am looking for the recorded glucose stimulated insulin release of the following molecule: O=C(O)CN1C(=O)/C(=C/c2cnc(N3CCOCC3)nc2)SC1=S [Compound 130e]
result: significant increases

query: Given Nc1nccc(NS(=O)(=O)c2ccc(/C=C3/SC(=O)NC3=O)cc2)n1 [Compound 105c] , state its recorded glucose stimulated insulin release.
result: significantly increased
